Dear all, this message contains pIC50 results, target or system human erythrocyte AChE (Homo sapiens, UniProt P22303).
Numbers only, as −log10 of the molar value.

Worked set:
Cc1ccc2c(c1)c1c(n2CCNC23CC4CC(CC(C4)C2)C3)CCN(C)C1.Cl.Cl [Compound 4e] | 4.20
CN1CCc2c(c3cc(F)ccc3n2CCNC23CC4CC(CC(C4)C2)C3)C1.Cl.Cl [Compound 4f] | 4.87
CN1CCc2c(c3cc(F)ccc3n2CCNC23CC4CC(C)(CC(C)(C4)C2)C3)C1.Cl.Cl [Compound 4c] | 4.40

Value sought for every listed molecule: pIC50.
1. CN1CCc2c(c3ccccc3n2CCNC23CC4CC(CC(C4)C2)C3)C1.Cl.Cl [Compound 4d]
2. Cc1ccc2c(c1)c1c(n2CCNC23CC4CC(C)(CC(C)(C4)C2)C3)CCN(C)C1.Cl.Cl [Compound 4b]

3.95
4.30

Cited source: paper PMC8471380
